B1: library; numbered along this chain (parent)
chain: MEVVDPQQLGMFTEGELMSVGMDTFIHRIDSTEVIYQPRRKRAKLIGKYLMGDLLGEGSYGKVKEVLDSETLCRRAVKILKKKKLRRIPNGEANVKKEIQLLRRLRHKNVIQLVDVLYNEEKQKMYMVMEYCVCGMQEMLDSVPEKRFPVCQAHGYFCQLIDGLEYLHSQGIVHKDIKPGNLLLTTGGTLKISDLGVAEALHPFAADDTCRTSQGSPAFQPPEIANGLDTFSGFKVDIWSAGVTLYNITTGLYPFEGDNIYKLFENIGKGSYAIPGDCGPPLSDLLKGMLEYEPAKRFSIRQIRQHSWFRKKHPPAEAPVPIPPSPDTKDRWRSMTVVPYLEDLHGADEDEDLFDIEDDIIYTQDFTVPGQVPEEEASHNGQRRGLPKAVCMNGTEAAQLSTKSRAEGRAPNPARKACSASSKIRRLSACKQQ

Variants of: B1
Test: STK11 functional score (HeLa growth suppression), rescaled enrichment; synonymous median = 1, nonsense median = 0 (normalised score)
Details: with HeLa; variant type: missense

Mutant designation	STK11 functional score
K44S	1.4
A417T	1.55
P89R	0.754
V150R	1.17
H345W	1.56
S271D	1.64
P369H	0.727
T363I	0.824
V236L	0.273
I111D	1.6
A225Y	0.922
L140H	-0.0286
I79F	0.321
G370F	1.5
V197C	1.55
Y272E	1.28
G279N	1.57
V128G	0.233
D229F	0.981
L50D	1.39
V337I	1.48
G381A	1.09
